Data credit: the supplement of paper PMC4466140

Assign SPOT peptide array binding signal intensity to each entry below.
target: AgMyo5
test-summary: SPOT peptide array binding signal intensity (averaged, normalized) (arbitrary units (background-subtracted, floor 0; scale differs between SH3 domains)); higher = stronger binding of the SH3 domain to the peptide
Lab note: record the figure alone, no unit after it.

(Q) # input binder: VGFRLALKFPSRITG ; wanted: its SPOT peptide array binding signal intensity
(A) 9.5

(Q) Entry under review: LKRITSPPLPPRADS . Reported SPOT peptide array binding signal intensity?
(A) 3.25

(Q) Query (binder): RKQRSIPLSPIVPES ; field requested: SPOT peptide array binding signal intensity
(A) 0.25
